- system_under_test: M-phase inducer phosphatase 2 (Homo sapiens, UniProt P30305, E492Q)
- Sequence (P30305 whole entry E492Q): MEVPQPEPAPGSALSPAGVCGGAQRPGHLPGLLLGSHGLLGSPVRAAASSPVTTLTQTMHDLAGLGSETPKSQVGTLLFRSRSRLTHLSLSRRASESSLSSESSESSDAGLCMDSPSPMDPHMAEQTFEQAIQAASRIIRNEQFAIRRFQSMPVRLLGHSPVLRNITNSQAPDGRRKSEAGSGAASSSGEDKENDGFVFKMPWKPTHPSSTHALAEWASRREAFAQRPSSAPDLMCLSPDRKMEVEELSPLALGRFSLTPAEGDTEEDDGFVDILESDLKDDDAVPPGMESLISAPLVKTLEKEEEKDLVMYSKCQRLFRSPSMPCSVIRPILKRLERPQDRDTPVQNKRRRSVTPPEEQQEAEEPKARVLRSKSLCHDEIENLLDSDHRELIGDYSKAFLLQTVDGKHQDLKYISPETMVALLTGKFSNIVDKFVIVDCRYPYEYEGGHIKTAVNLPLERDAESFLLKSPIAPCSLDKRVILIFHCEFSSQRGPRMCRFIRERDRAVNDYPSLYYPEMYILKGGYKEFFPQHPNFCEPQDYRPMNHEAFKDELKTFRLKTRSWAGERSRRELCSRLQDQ
- experiment_description: Inhibitory concentration of compound against mutant E478Q of Cell division cycle 25B was determined
measurement_type: pIC50
Please keep in mind that pIC50 is minus log10 of the molar concentration; only the number is needed.

Prompt: Please give measured pIC50 of the following entry: CC(C)=CCc1cccc2c(C3=C(O)C(O)=CC(=O)C3=O)c[nH]c12
Response: 5.19

* * *

- system_under_test: M-phase inducer phosphatase 1 (Homo sapiens) (UniProt P30304)
- Sequence (whole entry): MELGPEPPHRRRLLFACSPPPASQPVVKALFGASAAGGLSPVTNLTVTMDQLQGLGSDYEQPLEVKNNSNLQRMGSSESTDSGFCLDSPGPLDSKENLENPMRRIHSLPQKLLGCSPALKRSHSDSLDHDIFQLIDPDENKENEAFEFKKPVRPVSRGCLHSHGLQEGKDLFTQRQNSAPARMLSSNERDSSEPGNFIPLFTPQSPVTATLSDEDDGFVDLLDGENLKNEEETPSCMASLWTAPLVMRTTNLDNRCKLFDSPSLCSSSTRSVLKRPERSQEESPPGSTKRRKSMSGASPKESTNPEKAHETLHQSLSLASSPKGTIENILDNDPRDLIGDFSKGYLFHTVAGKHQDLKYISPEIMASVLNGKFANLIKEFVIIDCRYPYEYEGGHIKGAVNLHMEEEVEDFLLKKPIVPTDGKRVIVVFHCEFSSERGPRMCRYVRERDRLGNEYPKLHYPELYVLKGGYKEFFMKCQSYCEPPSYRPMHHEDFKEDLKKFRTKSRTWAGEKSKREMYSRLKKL
- experiment_description: Percent inhibition of cell division cycle 25A at 50 uM
Range-based classes on measured inhibition: bucket A (below 20%), bucket B (20% to below 70%), bucket C (70% or more)

Prompt: State the class of the molecule shown: O=C1C=C(O)C(=O)C(c2c[nH]c3c(Cc4ccccc4)cccc23)=C1O
Response: bucket C

Prompt: State the class of the molecule shown: O=C1C=C(O)C(=O)C(c2c(-c3ccccc3)[nH]c3ccccc23)=C1O
Response: bucket B

Prompt: State the class of the molecule shown: Cc1ccc2[nH]c(C)c(C3=C(O)C(O)=CC(=O)C3=O)c2c1
Response: bucket A

Prompt: State the class of the molecule shown: COc1cccc2[nH]cc(C3=C(O)C(O)=CC(=O)C3=O)c12
Response: bucket B

Prompt: State the class of the molecule shown: O=C1C=C(O)C(=O)C(c2c[nH]c3ccc(OCc4ccccc4)cc23)=C1O
Response: bucket C

Prompt: State the class of the molecule shown: COc1ccc2[nH]c(C)c(C3=C(O)C(O)=CC(=O)C3=O)c2c1
Response: bucket A

Prompt: State the class of the molecule shown: CC1(c2[nH]c3ccccc3c2C2=C(O)C(O)=CC(=O)C2=O)CC1
Response: bucket A

Prompt: State the class of the molecule shown: Cc1cccc2[nH]cc(C3=C(O)C(O)=CC(=O)C3=O)c12
Response: bucket B

Prompt: State the class of the molecule shown: O=C1C=C(O)C(=O)C(c2c[nH]c3cccc(Cl)c23)=C1O
Response: bucket B

Prompt: State the class of the molecule shown: Cc1ccc2c(C3=C(O)C(O)=CC(=O)C3=O)c[nH]c2c1
Response: bucket B

Prompt: State the class of the molecule shown: O=C1C=C(O)C(=O)C(c2c[nH]c3c(Br)cccc23)=C1O
Response: bucket A

Prompt: State the class of the molecule shown: O=C1C=C(O)C(=O)C(c2c[nH]c3ccc(Br)cc23)=C1O
Response: bucket C

Prompt: State the class of the molecule shown: O=C1C=C(O)C(=O)C(c2c[nH]c3cccc(OCc4ccccc4)c23)=C1O
Response: bucket B

Prompt: State the class of the molecule shown: O=C1C=C(O)C(=O)C(c2c[nH]c3c(Cl)cccc23)=C1O
Response: bucket A

Prompt: State the class of the molecule shown: O=C1C=C(O)C(=O)C(c2c[nH]c3ccc(Cl)cc23)=C1O
Response: bucket B

Prompt: State the class of the molecule shown: O=C1C=C(O)C(=O)C(c2c[nH]c3cc(OCc4ccccc4)ccc23)=C1O
Response: bucket C

Prompt: State the class of the molecule shown: O=C1C=C(O)C(=O)C(c2c[nH]c3cc(F)ccc23)=C1O
Response: bucket C

Prompt: State the class of the molecule shown: Cc1[nH]c2ccc(Cl)cc2c1C1=C(O)C(O)=CC(=O)C1=O
Response: bucket A

Prompt: State the class of the molecule shown: O=C1C=C(O)C(=O)C(c2c[nH]c3c(OCc4ccccc4)cccc23)=C1O
Response: bucket C

Prompt: State the class of the molecule shown: COc1cccc2c(C3=C(O)C(O)=CC(=O)C3=O)c[nH]c12
Response: bucket A

Prompt: State the class of the molecule shown: O=C1C=C(O)C(=O)C(c2c[nH]c3c(F)cccc23)=C1O
Response: bucket C
